This collection of values is drawn from the supplement of paper PMC12350171.

- Tested on: S. enterica typhimurium tolC KO;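 further: active when median AUC fell below 0.1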
- test description: growth AUC normalised to DMSO control (median) (fraction of control); higher = less growth inhibition, active = hit call of the paper
- condition notes: 20 µM
Structures can show the parent of a compound that is named as a salt.
Below, each entry is listed alongside its reported growth AUC normalised to DMSO control.
Simply state the number, no unit and no words.

Consider the reported growth AUC normalised to DMSO control for these compounds:
NS(=O)(=O)c1cc2c(cc1C(F)(F)F)NCNS2(=O)=O [Hydroflumethiazide] :: 1.01
Cc1cccn2c(=O)c(-c3nnn[nH]3)cnc12 :: 0.995
Nc1ccn([C@@H]2O[C@H](CO)[C@@H](O)[C@@H]2O)c(=O)n1 :: 0.997
CC(C)Cc1ccc(C(C)C(=O)OCc2ccccn2)cc1 (configuration not stated) :: 0.875
Nc1ccc2cc3ccc(N)cc3nc2c1 [Proflavine hemisulfate] :: 0.91
Cc1ccc(C(=O)c2cc(O)c(O)c([N+](=O)[O-])c2)cc1 :: 0.91
COc1ccc(C(=O)c2ccccc2)c(O)c1 :: 0.954
CS(=O)(=O)c1ccc([C@@H](O)[C@@H](CO)NC(=O)C(Cl)Cl)cc1 :: 0.281

So what growth AUC normalised to DMSO control did CN(C)CCOC(c1ccc(Cl)cc1)c1ccccn1 (configuration not stated) [Carbinoxamine maleate salt] get with S. enterica typhimurium tolC KO?
0.997

Check "O=C(O)Cc1sc(-c2ccccc2)nc1-c1ccc(Cl)cc1" too.
0.98

How about Cc1c(N(C)CS(=O)(=O)O)c(=O)n(-c2ccccc2)n1C [Dipyrone sodium salt] ?
0.999

Also "Nc1ccc(S(=O)(=O)c2ccc(N)cc2)cc1" , if possible.
0.994

Check "CC(=O)O[C@H]1C(=O)[C@@]2(C)[C@H]([C@H](OC(=O)c3ccccc3)[C@]3(O)C[C@H](OC(=O)[C@H](O)[C@@H](NC(=O)c4ccccc4)c4ccccc4)C(C)=C1C3(C)C)[C@]1(OC(C)=O)CO[C@@H]1C[C@@H]2O" too.
1.02

---

- System: Yersinia pseudotuberculosis
- test description: growth AUC normalised to DMSO control (fraction of control); higher = less growth inhibition, active = hit call of the paper
- condition notes: 20 µM
Where a name gives a salt, the structure may show the parent alone.
measured quantity: growth AUC normalised to DMSO control
Just the number, please.

Clc1cccc(Cl)c1NC1=NCCN1 [Clonidine hydrochloride] :: 1.01
Cc1ccccc1N1C(=O)c2cc(S(N)(=O)=O)c(Cl)cc2NC1C (stereo not given) :: 0.991
CCn1cc(C(=O)O)c(=O)c2cnc(N3CCCC3)nc21 :: 0.983
C[n+]1ccccc1/C=N/O [Pralidoxime chloride] :: 1.01
CN1CCN(CC(=O)N2c3ccccc3C(=O)Nc3cccnc32)CC1 [Pirenzepine dihydrochloride] :: 1.01
C[C@]12CC[C@@H]3c4ccc(O)cc4CC[C@H]3[C@@H]1CCC2=O :: 0.975

Requested field: growth AUC normalised to DMSO control. Item: "Nc1nc(=O)[nH]cc1F"
1.01

Next up: "O=C(O)c1ccccc1C(=O)Nc1ccc(S(=O)(=O)Nc2nccs2)cc1"
0.997

Okay, and CC(=O)OC(C)C[N+](C)(C)C (stereo not given) [Methacholine chloride] ?
0.983

Next compound up: NC[C@@H]1O[C@H](O[C@H]2[C@@H](O)[C@H](O[C@@H]3[C@@H](O)[C@H](N)C[C@H](N)[C@H]3O[C@H]3O[C@H](CN)[C@@H](O)[C@H](O)[C@H]3N)O[C@@H]2CO)[C@H](N)[C@@H](O)[C@@H]1O [Neomycin sulfate]
1

Repeat with Cc1c(-c2ccccc2)oc2c(C(=O)OCCN3CCCCC3)cccc2c1=O [Flavoxate hydrochloride]
0.984

Would you kindly repeat that for CCCc1cc(C(N)=S)ccn1 [Prothionamide] ?
1

Please give the result for CN1CCN2c3ccccc3Cc3ccccc3C2C1 (stereo not given) [Mianserine hydrochloride] too.
0.956

Subsequent entry: CS(=O)(=O)Nc1ccc([N+](=O)[O-])cc1Oc1ccccc1 [Nimesulide]
0.984

Next record, please: O=C1CCC(N2C(=O)c3ccccc3C2=O)C(=O)N1 (stereo not given) [Thalidomide]
0.988

Please do the same for "C[C@]12CC[C@@H]3c4ccc(O)cc4CC[C@H]3[C@@H]1CC[C@@H]2O" as well.
1.01

Subsequent entry: "C[C@]12CC[C@H]3[C@@H](CCC4=CC(=O)CC[C@@]43C)[C@@H]1CC[C@@H]2C(=O)CO"
1.03

c1ccc(-c2ccc(C(c3ccccc3)n3ccnc3)cc2)cc1 (stereo not given) , same question.
1.02

// repeat for Cc1onc(-c2ccccc2)c1C(=O)N[C@@H]1C(=O)N2[C@@H]1SC(C)(C)[C@@H]2C(=O)O [Oxacillin sodium] and report
0.908

Would you mind doing O=P(O)(O)C(Cl)(Cl)P(=O)(O)O [Clodronate disodium] as well?
0.991

Then CCC(=O)[C@@]1(C)[C@H](C)C[C@H]2[C@@H]3CCC4=CC(=O)C=C[C@]4(C)[C@H]3[C@@H](O)C[C@@]21C [Rimexolone] ?
0.997

Param item: CC(CN(C)C)C(C)(O)Cc1ccc(Cl)cc1 (stereo not given) [Clobutinol hydrochloride]
0.993

And CCc1cc(C(N)=S)ccn1 [Ethionamide] ?
0.975

Same for "CCOC(=O)C1=C(C)NC(C)=C(C(=O)OCC)C1c1ccccc1/C=C/C(=O)OC(C)(C)C"
1.02

Also check CCOc1cc(CC(=O)N[C@@H](CC(C)C)c2ccccc2N2CCCCC2)ccc1C(=O)O [Repaglinide]
1.02

Proceed to "Cn1ccnc1S"
1.01
